- assayed target: Chromo domain-containing protein 1 (Saccharomyces cerevisiae (strain ATCC 204508 / S288c) (Baker's yeast))
- procedure summary: ScCHD-1 Enzyme Inhibition Assay
- Assay type: functional
- Parameters: scale not given: in the data most compounds retested in dose-response had high values
- experimental context: 30 µM
quantity name: Percent Effect (%)
Answer in %, number only, no unit symbol.

Field Percent Effect (entry Cc1nc(C)n(C2CCCN(C(=O)c3csc(C(C)C)n3)C2)n1 (centres undefined) ) reads -17.4

Field Percent Effect (entry C1CC(NCc2nc(C3CC3)no2)CN(Cc2noc(C3CC3)n2)C1 (centres undefined) ) reads -4.12

Field Percent Effect (entry Cc1nc(C)n(CC2CCCN2CCCOc2ccc(F)cc2)n1 (centres undefined) ) reads -6.25

More entries:
Field Percent Effect (entry c1ccc2oc(CCCN3CCCC3Cn3cncn3)nc2c1 (centres undefined) ) reads 7.47

Field Percent Effect (entry CSCC(C)(O)CNC(=O)c1ccc(Br)cc1F (centres undefined) ) reads -3.6

Field Percent Effect (entry CCCc1nc(N2Cc3cnn(Cc4ccc(F)cc4)c3C2)no1 ) reads -7.25

Field Percent Effect (entry COc1cccc(CNC(=O)CC2CSc3ncc(C)c(=O)n32)c1 (centres undefined) ) reads -9.11

Field Percent Effect (entry O=C(COCc1nc(-c2ccncc2)no1)N1CCCC1 ) reads -4.16

Field Percent Effect (entry CSc1ncccc1C(=O)N1C[C@H]2CC[C@@H]1CN(c1cnccn1)C2 ) reads 0.924

Field Percent Effect (entry CCC(C)(C)NC(=O)C1CC(=O)N(CC2CC2)C1 (centres undefined) ) reads -7.51

Field Percent Effect (entry O=C(Cc1cccs1)N1C[C@@H]2COC[C@]2(COc2cccnc2)C1 ) reads -1.81

Field Percent Effect (entry Cc1cnn(CC2CCCN2C(=O)c2cccc(-n3cnnn3)c2)c1 (centres undefined) ) reads -1.78

Field Percent Effect (entry Cc1cnn(CC2CCCCN2Cc2nc(N)c3ccccc3n2)c1 (centres undefined) ) reads -8.03

Field Percent Effect (entry O=C(CCN1CCC(C(=O)c2cc(F)ccc2F)CC1)NC1CC1 ) reads -3.85

Field Percent Effect (entry CCc1nc(CN2CCCN(C(=O)c3cnc[nH]3)CC2)cs1 ) reads 4.62

Field Percent Effect (entry CNC(=O)N1CC[C@H]2N(C)CC[C@@]2(C(=O)Nc2ccccc2)CC1 ) reads -1.69

Field Percent Effect (entry CCOc1ccnc(N2CCN(C(=O)c3cccc(C#N)c3)CC2)n1 ) reads 2.13

Field Percent Effect (entry CCc1ccc(C2CCCCCN2Cc2nc(CCOC)no2)o1 (centres undefined) ) reads -9.18

Field Percent Effect (entry Cc1ccc2c(c1)CN(C(=O)C1CCCCC1)C(CN(C)C)CO2 (centres undefined) ) reads -13.3

Field Percent Effect (entry CNS(=O)(=O)Cc1ccc(CNC(=O)c2cccc(C)n2)cc1 ) reads -7.52

Field Percent Effect (entry Cc1noc(CCCC(=O)NC(C)c2cccnc2)n1 (centres undefined) ) reads -6.49

Field Percent Effect (entry CCn1cc(NC(=O)NC2CCCc3c2cnn3CCO)cn1 (centres undefined) ) reads -14.2

Field Percent Effect (entry CC(C)CCN1CC2(CCCN(C(=O)c3cscn3)C2)CCC1=O (centres undefined) ) reads -0.298

Field Percent Effect (entry CC(O)CC(C)(C)CNC(=O)NCc1cccc(-n2cncn2)c1 (centres undefined) ) reads -0.141

Taken from ChEMBL document CHEMBL3988442.
